- system.tested: Ras-related protein Rab-2A (Canis lupus familiaris) (UniProt P61105)
- assay: Rab2 wt fluorescent GTP binding changes, either direction – biochemical, dog, bead-based flow cytometry, multiplex, primary screen (AID 760)
- condition.context: GST-Rab2 wt beads, Bodipy-GTP binding, at 10 µM
About 360 (0.19%) of roughly 190,000 compounds were called active. Inconclusive results (about 2%) are left out.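 How the source made its calls: active means GTP binding activity at least 20 points away from 100%, either lowered or raised; inconclusive means signal likely due to the compound's own green fluorescence; inactive means the rest.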 The full list was thinned out, with actives kept by preference.
Please state which outcome applies, choosing from Yes for active, No for inactive

# input Status in this test for O=C(Nc1ccc(F)c([N+](=O)[O-])c1)C1CC(=O)N(Cc2ccccc2)C1 (stereo unspecified) ?
# output No

# input // param item: COc1ccc(C2CC(c3cccs3)Nc3nnnn32)cc1 (stereo unspecified) ; yields the recorded call
# output No

# input Given CC(=O)NC1C(OCc2ccccc2)OC(COC(C)=O)C(OC(C)=O)C1OC(C)=O (stereo unspecified) , state the outcome it received in this test.
# output No

# input Give the logged outcome of this assay for the following compound: NS(=O)(=O)c1ccc(NC(=O)COC(=O)c2ccco2)cc1
# output No

# input For CN(C)CCOCCOc1ccc(Cl)c2ccccc12 , which call appears in the assay record?
# output No

# input For this compound, state the assay outcome: COc1ccc(S(=O)(=O)N(C)C)cc1NC(=O)CSc1ncccn1
# output No

# input Kindly provide the recorded test outcome for the following compound: Cc1ccc(CN2CCC(N3CCC(C(=O)NCC4CCCO4)CC3)CC2)o1 (stereo unspecified)
# output No

# input Test call for this compound, please: CCN(CC)c1ccc(C(=O)c2cnc(/N=C/N(C)C)s2)cc1
# output No

# input Could you please tell me the result logged for C=CCC(C(=O)c1ccccc1)[N+](C)(C)CC=C (stereo unspecified) in this assay?
# output No

# input Just curious, what result did O=C(CSc1ccc([N+](=O)[O-])cn1)Nc1ccc(N2CCOCC2)c(Cl)c1 get here?
# output No

# input Just curious, what result did COc1ccc(/C=N/Nc2ncnc3sc4c(c23)CCCC4)cc1O get here?
# output Yes

# input Hi, do you know how COC(=O)c1ccc(/C=N/N2C(C)CCCC2C)cc1 (stereo unspecified) came out in this test?
# output No

# input Name the outcome recorded for Cc1ccc(NC(=S)NC(=O)c2ccc(-c3ccccc3)cc2)c(C)c1 in the assay.
# output No

# input Hi, sorry to bother you, what did the test record for O=C(O)/C=C/c1cn(Cc2ccccc2)nc1-c1cccs1 ?
# output Yes

# input Each compound tested received a call. Report the one for CN(C)CC(C)(C)CNC(=O)c1cc(Br)cc(Br)c1O .
# output No

# input I would be grateful if you could indicate the recorded call for O=C(COC(=O)CNC(=O)c1ccccc1F)NCC(F)(F)F .
# output No

# input Fill in: this test's call for Cc1ccc(CNC(=O)CCNS(=O)(=O)c2ccc(Br)s2)cc1 is ___
# output No

# input Entry Cc1ccccc1NCC(=O)N/N=C\c1ccc([N+](=O)[O-])s1 : call = ?
# output No

# input State the result this test recorded for Cc1ccccc1CC1(CO)CCCN(Cc2ccc3c(c2)OCCO3)C1 (stereo unspecified) .
# output No

# input For Cc1ccc(Nc2c(F)c(F)c(F)c(F)c2C(=O)O)c(C)c1 , which call appears in the assay record?
# output Yes

# input Name the outcome recorded for NC(=O)Cn1nc([N+](=O)[O-])nc1Oc1ccc(Br)cc1 in the assay.
# output No

# input What did the test return for CCOC(=O)C1=C(CN2CCCCCC2)NC(=O)NC1c1cccc([N+](=O)[O-])c1 (stereo unspecified) ?
# output No

# input I'd appreciate the recorded outcome for CSc1ccc(CNCCN2CCOCC2)cc1 from this test.
# output No

# input # outcome recorded in this test, key = COc1cccc(CNC(=O)Cc2csc(Nc3nc(=S)[nH]c4ccccc34)n2)c1
# output No

# input State the result this test recorded for O=C(Nc1nnc(C2CC2)s1)C1=NN(C2CCS(=O)(=O)C2)C(=O)CC1 (stereo unspecified) .
# output No

# input Could you please tell me the result logged for O=C(CCc1ccccc1)NCCc1cccs1 in this assay?
# output No

# input How did this test come out for Cc1cc(C(=O)N/N=C/c2ccccc2[N+](=O)[O-])c(C)o1 ?
# output No

# input I would be grateful if you could indicate the recorded call for Cc1ccc(C(=O)NN(CCC#N)C2=NS(=O)(=O)c3ccccc32)cc1 .
# output No

# input Dear colleague, could you share the recorded outcome for Cc1ccc(NC(=O)Nc2cccc(C(F)(F)F)c2)nc1 when you have a moment?
# output No

# input Record lookup: outcome of this test for CCOC(=O)c1sc(NC(=O)c2cc(S(=O)(=O)N3CCOCC3)ccc2C)nc1C ?
# output No

# input What did this assay record as the result for O=C(Cc1csc(Nc2nc(=S)[nH]c3ccccc23)n1)NCCCN1CCN(c2cccc(Cl)c2)CC1 ?
# output Yes
